Data provenance: patent US9458137B2

% Inhibition @1 μM Abl values for the compounds below.
- Tested on: abl kinase
- measurement notes: abl kinase inhibition assay
- Type: biochemical

| compound | % Inhibition @1 μM Abl [%] |
| --- | --- |
| Cc1cc2c(F)c(Oc3nc(Nc4cc(C5CC5)[nH]n4)cc(N4CCN(c5ccncc5)CC4)n3)ccc2[nH]1 | 108 |
| Cc1cc2c(F)c(Oc3nc(Nc4cc(C5CC5)[nH]n4)cc(N4CCN(C)CC4)n3)ccc2n1C | 109 |
| C/C=C/c1cc(Nc2cc(N3CCN(CC)CC3)nc(Oc3cc(F)c4[nH]c(C)cc4c3F)n2)n[nH]1 | 113 |
| CCC1CN(c2cc(Nc3cc(C4CC4)[nH]n3)nc(Oc3ccc4[nH]c(C)cc4c3F)n2)CCN1 (centres unmarked) | 108 |
| Cc1cc(Nc2cc(N3CCOCC3)nc(Oc3cc(F)c4[nH]c(C)cc4c3F)n2)n[nH]1 | 111 |
| C/C=C/c1cc(Nc2cc(N3CCN(C(C)=O)CC3)nc(Oc3ccc4[nH]c(C)cc4c3F)n2)n[nH]1 | 111 |
| Cc1cc2c(F)c(Oc3nc(Nc4cc(C5CC5)[nH]n4)cc(N4CCN(C)CC4)n3)ccc2[nH]1 | 112 |
| Cc1cc(Nc2cc(N3CCN(CCO)CC3)nc(Oc3cc(F)c4[nH]c(C)cc4c3F)n2)n[nH]1 | 112 |
| Cc1cc2c(F)c(Oc3nc(Nc4cc(C5CC5)[nH]n4)cc(N4C[C@@H](C)N[C@@H](C)C4)n3)ccc2[nH]1 | 107 |
| C/C=C/c1cc(Nc2cc(N3CCN(C)CC3)nc(Oc3ccc4c(cc(C)n4C)c3F)n2)n[nH]1 | 115 |
| Cc1cc2c(F)c(Oc3nc(Nc4cc(C5CC5)[nH]n4)cc(N4CCN(C)CC4)n3)cc(F)c2[nH]1 | 110 |
| Cc1cc2c(F)c(Oc3nc(Nc4cc(C5CC5)[nH]n4)cc(N4CCC(O)CC4)n3)ccc2[nH]1 | 107 |
| CCN1CCN(c2cc(Nc3cc(C4CC4)[nH]n3)nc(Oc3ccc4[nH]c(C)cc4c3F)n2)CC1 | 115 |
| C/C=C/c1cc(Nc2cc(N3CCOCC3)nc(Oc3ccc4c(cc(C)n4C)c3F)n2)n[nH]1 | 116 |
| Cc1cc2c(F)c(Oc3nc(Nc4cc(C5CC5)[nH]n4)cc(N4CCN(CCN(C)C)CC4)n3)ccc2[nH]1 | 110 |
| Cc1cc2c(F)c(Oc3nc(Nc4cc(C5CC5)[nH]n4)cc(N4CCN(c5ccccn5)CC4)n3)ccc2[nH]1 | 108 |
| C/C=C/c1cc(Nc2cc(N3CCC(O)C3)nc(Oc3ccc4[nH]c(C)cc4c3F)n2)n[nH]1 (centres unmarked) | 112 |
| C/C=C/c1cc(Nc2cc(N3CCC(OC)CC3)nc(Oc3ccc4[nH]c(C)cc4c3F)n2)n[nH]1 | 112 |
| Cc1cc2c(F)c(Oc3nc(Nc4cc(C5CC5)[nH]n4)cc(N4CCOC(CN)C4)n3)ccc2[nH]1 (centres unmarked) | 110 |
| COCC1CCN(c2cc(Nc3cc(C4CC4)[nH]n3)nc(Oc3ccc4[nH]c(C)cc4c3F)n2)C1 (centres unmarked) | 94 |
| C/C=C/c1cc(Nc2cc(N3CCC(O)CC3)nc(Oc3ccc4[nH]c(C)cc4c3F)n2)n[nH]1 | 112 |
| Cc1cc2c(F)c(Oc3nc(Nc4cc(C5CC5)[nH]n4)cc(N4CCN(CCO)CC4)n3)ccc2[nH]1 | 112 |
| Cc1cc2c(F)c(Oc3nc(Nc4cc(C5CC5)[nH]n4)cc(N4CCN(CCO)CC4)n3)cc(F)c2[nH]1 | 110 |
